System: Glycine max (GLXMA)
test: Pre-emergence effects on crop plants, section D (Table D4)
Assay type: in vivo
runParameters: application rate 80 g/ha; visual grading after ca. 3 weeks
observedProperty: pre-emergence activity against GLXMA in % (crop plant damage) (%)
Quick reminder: number only, in %, skip the unit.

Lab book: pre-emergence activity against GLXMA in % (crop plant damage) of CS(=O)(=O)N1C[S+]([O-])c2cc(Br)c(-c3ccccc3Cl)nc21 (stereo not drawn) noted as 20

Lab book: pre-emergence activity against GLXMA in % (crop plant damage) of CCS(=O)(=O)N1CSc2cc(C)c(-c3ccccc3F)nc21 noted as 0

Lab book: pre-emergence activity against GLXMA in % (crop plant damage) of CCOCCS(=O)(=O)N1C[S+]([O-])c2cc(C)c(-c3ccccc3F)nc21 (stereo not drawn) noted as 20

Lab book: pre-emergence activity against GLXMA in % (crop plant damage) of Cc1cc2c(nc1-c1cccc(F)c1F)NCS2 noted as 10

Lab book: pre-emergence activity against GLXMA in % (crop plant damage) of Cc1cc2c(nc1-c1ccccc1F)N(S(=O)(=O)Cc1ccc(F)cc1)CS2 noted as 10

Lab book: pre-emergence activity against GLXMA in % (crop plant damage) of Cc1cc2c(nc1-c1cccc(F)c1F)N(S(C)(=O)=O)CS2(=O)=O noted as 0

Lab book: pre-emergence activity against GLXMA in % (crop plant damage) of CC(C)C(=O)N1C[S+]([O-])c2cc(Br)c(-c3ccccc3)nc21 (stereo not drawn) noted as 20

Lab book: pre-emergence activity against GLXMA in % (crop plant damage) of COCCOCCOCC(=O)N1CSc2cc(Br)c(-c3cccc(F)c3F)nc21 noted as 0

Lab book: pre-emergence activity against GLXMA in % (crop plant damage) of CCS(=O)(=O)N1CS(=O)(=O)c2cc(C)c(-c3ccccc3F)nc21 noted as 0

----------
System: Amaranthus retroflexus (AMARE)
test: Herbicidal pre-emergence action, section C (Table C11)
Format: in vivo
runParameters: Amaranthus retroflexus, pre-emergence, 504 h; application rate 320 g/ha; visual grading after ca. 3 weeks; read-out: pre-emergence activity against AMARE in %
observedProperty: pest or weed control at 320 g/ha (%)
Quick reminder: number only, in %, skip the unit.

Lab book: pest or weed control at 320 g/ha of CCS(=O)(=O)N1CSc2cc(C)c(-c3ccccc3F)nc21 noted as 90

Lab book: pest or weed control at 320 g/ha of Fc1ccccc1-c1nc2c(cc1Br)SCN2 noted as 90

Lab book: pest or weed control at 320 g/ha of Cc1cc2c(nc1-c1cccc(F)c1F)N(S(C)(=O)=O)CS2(=O)=O noted as 100

Lab book: pest or weed control at 320 g/ha of CCOCCS(=O)(=O)N1C[S+]([O-])c2cc(C)c(-c3ccccc3F)nc21 (stereo not shown) noted as 90

----------
Consider the following compounds; for each one, report its pest or weed control at 80 g/ha.
System: Digitaria sanguinalis (DIGSA)
test: Herbicidal pre-emergence action, section C (Table C12)
Assay type: in vivo
runParameters: Digitaria sanguinalis, pre-emergence, 504 h; application rate 80 g/ha; visual grading after ca. 3 weeks; read-out: pre-emergence activity against DIGSA in %
Quick reminder: number only, in %, skip the unit.

Lab book: pest or weed control at 80 g/ha of Cc1cc2c(nc1-c1cccc(F)c1F)NCS2 noted as 90

Lab book: pest or weed control at 80 g/ha of CCc1ccccc1-c1nc2c(cc1C)[S+]([O-])CN2 (stereo not drawn) noted as 90

Lab book: pest or weed control at 80 g/ha of CC(=O)N1CSc2cc(Br)c(-c3ccccc3Cl)nc21 noted as 90

----------
Test system: Alopecurus myosuroides (ALOMY)
test: Herbicidal pre-emergence action, section C (Table C2)
Type: in vivo
runParameters: Alopecurus myosuroides, pre-emergence, 504 h; application rate 320 g/ha; visual grading after ca. 3 weeks vs untreated controls; read-out: pre-emergence activity against ALOMY in %
observedProperty: pest or weed control at 320 g/ha

Lab book: pest or weed control at 320 g/ha of Cc1cc2c(nc1-c1ccccc1F)NCS2 noted as 100%

Lab book: pest or weed control at 320 g/ha of Cc1cc2c(nc1-c1ccccc1Cl)NCS2 noted as 100%

Lab book: pest or weed control at 320 g/ha of CC1(C(=O)N2CSc3cc(Br)c(-c4ccccc4Cl)nc32)CC(Cl)=NO1 (centres unmarked) noted as 80%

Lab book: pest or weed control at 320 g/ha of Clc1ccccc1-c1nc2c(cc1Br)SCN2 noted as 80%

Lab book: pest or weed control at 320 g/ha of O=C(C1CCCC1)N1CSc2cc(Br)c(-c3ccccc3F)nc21 noted as 80%

Lab book: pest or weed control at 320 g/ha of Cc1cc2c(nc1-c1ccccc1F)N(C(=O)C1CC1)CS2 noted as 100%

Lab book: pest or weed control at 320 g/ha of Fc1ccccc1-c1nc2c(cc1Br)SCN2 noted as 100%

Lab book: pest or weed control at 320 g/ha of CC(=O)N1CSc2cc(Br)c(-c3ccccc3Cl)nc21 noted as 80%

----------
Test system: Triticum aestivum (TRZAS)
test: Pre-emergence effects on crop plants, section D (Table D2)
Format: in vivo
runParameters: application rate 80 g/ha; visual grading after ca. 3 weeks
Consider the following molecules; for each one, report its pre-emergence activity against TRZAS in % (crop plant damage).
Quick reminder: number only, in %, skip the unit.

The molecule CCOCCS(=O)(=O)N1C[S+]([O-])c2cc(C)c(-c3ccccc3F)nc21 (centres unmarked) , tested on Triticum aestivum (TRZAS), showed pre-emergence activity against TRZAS in % (crop plant damage) of 20

The molecule Cc1cc2c(nc1-c1ccccc1F)N(C(=O)C1CC1)CS2 , tested on Triticum aestivum (TRZAS), showed pre-emergence activity against TRZAS in % (crop plant damage) of 10

The molecule Cc1cc2c(nc1-c1ccccc1)N(C(=O)C1(C)CC(Cl)=NO1)CS2 (centres unmarked) , tested on Triticum aestivum (TRZAS), showed pre-emergence activity against TRZAS in % (crop plant damage) of 0

The molecule CC1(C(=O)N2CSc3cc(Br)c(-c4ccccc4Cl)nc32)CC(Cl)=NO1 (centres unmarked) , tested on Triticum aestivum (TRZAS), showed pre-emergence activity against TRZAS in % (crop plant damage) of 0

The molecule Cc1cc2c(nc1-c1cccc(F)c1F)N(S(C)(=O)=O)CS2(=O)=O , tested on Triticum aestivum (TRZAS), showed pre-emergence activity against TRZAS in % (crop plant damage) of 0

----------
Test system: Zea mays (ZEAMX)
test: Pre-emergence effects on crop plants, section D (Table D1)
Assay type: in vivo
runParameters: application rate 320 g/ha; visual grading after ca. 3 weeks
Consider the following compounds; for each one, report its pre-emergence activity against ZEAMX in % (crop plant damage).
Quick reminder: number only, in %, skip the unit.

Lab book: pre-emergence activity against ZEAMX in % (crop plant damage) of CS(=O)(=O)N1C[S+]([O-])c2cc(Br)c(-c3ccccc3Cl)nc21 (stereo not drawn) noted as 20

Lab book: pre-emergence activity against ZEAMX in % (crop plant damage) of COc1ccccc1-c1nc2c(cc1Br)SCN2B(N)N noted as 10

Lab book: pre-emergence activity against ZEAMX in % (crop plant damage) of CC(=O)N1CSc2cc(Br)c(-c3ccccc3Cl)nc21 noted as 0

Lab book: pre-emergence activity against ZEAMX in % (crop plant damage) of CCS(=O)(=O)N1CS(=O)(=O)c2cc(C)c(-c3ccccc3F)nc21 noted as 0

Lab book: pre-emergence activity against ZEAMX in % (crop plant damage) of COC(=O)CCC(=O)N1CSc2cc(Br)c(-c3sccc3Cl)nc21 noted as 10

Lab book: pre-emergence activity against ZEAMX in % (crop plant damage) of O=C(c1ccccc1C(F)(F)F)N1CSc2cc(Br)c(-c3ccccc3Cl)nc21 noted as 0

Taken from patent US20240381872A1.
